Ref: PubChem BioAssay AID1963963

Tested on: 958667-338-R-J2-PDC tumor spheroids viability
Assay: Anticancer human tumor 958667-338-R-J2-PDC patient-derived colon adenocarcinoma cell line growth inhibition [PI3K]
Conditions: second compound 1 µM; first compound 0.0316 µM; stronger effect = lower value; spheroids with HUVEC and MSC
Endpoint name: viability, T/C (%)

* CC1(C)CCC(Nc2ncc(C(F)(F)F)c(-c3c[nH]c4c(P(C)(C)=O)c(C#N)ccc34)n2)CN1 (stereo not drawn) + CC(Nc1ncnc2nc[nH]c12)c1cc2cccc(Cl)c2c(=O)n1-c1ccccc1 | 82.4
* C#Cc1c(F)ccc2cc(O)cc(-c3ncc4c(N5CC6CCC(C5)N6)nc(OCC56CCCN5CC(F)C6)nc4c3F)c12 (stereo not drawn) + COc1c(OCCCN2CCOCC2)ccc2c3n(c(=NC(=O)c4cnc(N)nc4)nc12)CCN3 | 14.1
* CC(=O)c1c(C)c2cnc(Nc3ccc(N4CCNCC4)cn3)nc2n(C2CCCC2)c1=O + CC(Nc1ccc2c(c1)OCCn1cc(N3C(=O)OCC3C(F)F)nc1-2)C(N)=O | 56.6

----------
Property: pIC50; scope: individual compounds
System: 958667-338-R-J2-PDC tumor spheroids viability
Assay: Anticancer human tumor 958667-338-R-J2-PDC cell line growth inhibition [PI3K];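 further: spheroids exposed to compounds for seven days before readout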
Details: curve of first compound; second compound 0.1 µM; spheroids with HUVEC and MSC
pIC50: −log10 of the molar value.
Endpoint name: pIC50

• CC(C)n1nc(-c2ccc3oc(N)nc3c2)c2c(N)ncnc21 + Cc1nc(NC(=O)N2CCCC2C(N)=O)sc1-c1ccnc(C(C)(C)C(F)(F)F)c1 = 7.22
• CC1(C)CCC(Nc2ncc(C(F)(F)F)c(-c3c[nH]c4c(P(C)(C)=O)c(C#N)ccc34)n2)CN1 (stereo unspecified) + Cc1nc(NC(=O)N2CCCC2C(N)=O)sc1-c1ccnc(C(C)(C)C(F)(F)F)c1 = 5.34
• Cn1nccc1Nc1nccc(-c2ccn(C(CO)c3ccc(Cl)c(F)c3)c(=O)c2)n1 (stereo unspecified) + COc1c(OCCCN2CCOCC2)ccc2c3n(c(=NC(=O)c4cnc(N)nc4)nc12)CCN3 = 5.90
• CCN1CCN(Cc2ccc(Nc3ncc(F)c(-c4cc(F)c5nc(C)n(C(C)C)c5c4)n3)nc2)CC1 + COc1c(OCCCN2CCOCC2)ccc2c3n(c(=NC(=O)c4cnc(N)nc4)nc12)CCN3 = 8.33
• C#Cc1c(F)ccc2cc(O)cc(-c3ncc4c(N5CC6CCC(C5)N6)nc(OCC56CCCN5CC(F)C6)nc4c3F)c12 (stereo unspecified) + COc1c(OCCCN2CCOCC2)ccc2c3n(c(=NC(=O)c4cnc(N)nc4)nc12)CCN3 = 5.96
• Cn1ncc(Cl)c1-c1cc(C(=O)NC(CN)Cc2cccc(F)c2)sc1Cl (stereo unspecified) + CC(Nc1ccc2c(c1)OCCn1cc(N3C(=O)OCC3C(F)F)nc1-2)C(N)=O = 5.71

----------
System: 958667-338-R-J2-PDC tumor spheroids viability
Assay: Anticancer human tumor 958667-338-R-J2-PDC cell line growth inhibition [PI3K];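 further: spheroids exposed to compounds for seven days before readout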
Details: second compound 0.0316 µM; first compound 0.316 µM; stronger effect = lower value; spheroids with HUVEC and MSC
Rule: measured viability, T/C below 90% gets Fulfilled; anything equal to or greater than 90% gets Not fulfilled.

• Cn1nccc1Nc1nccc(-c2ccn(C(CO)c3ccc(Cl)c(F)c3)c(=O)c2)n1 (stereo unspecified) + Cc1nc(NC(=O)N2CCCC2C(N)=O)sc1-c1ccnc(C(C)(C)C(F)(F)F)c1 = Not fulfilled
• CC1(C)CCC(Nc2ncc(C(F)(F)F)c(-c3c[nH]c4c(P(C)(C)=O)c(C#N)ccc34)n2)CN1 (stereo unspecified) + Cc1nc(NC(=O)N2CCCC2C(N)=O)sc1-c1ccnc(C(C)(C)C(F)(F)F)c1 = Fulfilled
• C=CC(=O)N1CCN(c2nc(=O)n(-c3c(C)ccnc3C(C)C)c3nc(-c4c(O)cccc4F)c(F)cc23)C(C)C1 (stereo unspecified) + Cc1nc(NC(=O)N2CCCC2C(N)=O)sc1-c1ccnc(C(C)(C)C(F)(F)F)c1 = Not fulfilled
• C#Cc1c(F)ccc2cc(O)cc(-c3ncc4c(N5CC6CCC(C5)N6)nc(OCC56CCCN5CC(F)C6)nc4c3F)c12 (stereo unspecified) + CC(Nc1ccc2c(c1)OCCn1cc(N3C(=O)OCC3C(F)F)nc1-2)C(N)=O = Not fulfilled
• CC1(C)CCC(Nc2ncc(C(F)(F)F)c(-c3c[nH]c4c(P(C)(C)=O)c(C#N)ccc34)n2)CN1 (stereo unspecified) + CC(Nc1ncnc2nc[nH]c12)c1cc2cccc(Cl)c2c(=O)n1-c1ccccc1 = Fulfilled
• Cn1nccc1Nc1nccc(-c2ccn(C(CO)c3ccc(Cl)c(F)c3)c(=O)c2)n1 (stereo unspecified) + COc1c(OCCCN2CCOCC2)ccc2c3n(c(=NC(=O)c4cnc(N)nc4)nc12)CCN3 = Fulfilled
• CCN1CCN(Cc2ccc(Nc3ncc(F)c(-c4cc(F)c5nc(C)n(C(C)C)c5c4)n3)nc2)CC1 + COc1c(OCCCN2CCOCC2)ccc2c3n(c(=NC(=O)c4cnc(N)nc4)nc12)CCN3 = Fulfilled
• CC(Cn1ccc(-c2ccc(C#N)c(Cl)c2)n1)NC(=O)c1cc(C(C)O)[nH]n1 (stereo unspecified) + COc1c(OCCCN2CCOCC2)ccc2c3n(c(=NC(=O)c4cnc(N)nc4)nc12)CCN3 = Fulfilled
• CCCS(=O)(=O)Nc1ccc(F)c(C(=O)c2c[nH]c3ncc(-c4ccc(Cl)cc4)cc23)c1F + CC(Nc1ccc2c(c1)OCCn1cc(N3C(=O)OCC3C(F)F)nc1-2)C(N)=O = Not fulfilled

----------
Tested on: 958667-338-R-J2-PDC tumor spheroids viability
Assay: Anticancer human tumor 958667-338-R-J2-PDC cell line growth inhibition [PI3K];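 further: spheroids exposed to compounds for seven days before readout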
Details: second compound 0.01 µM; first compound 0.1 µM; stronger effect = lower value; spheroids with HUVEC and MSC
From the text: Combinatorial screen of targeted agents with the PI3K inhibitors inavolisib, alpelisib, duvelisib, and copanlisib in multi-cell type tumor spheroids A high-throughput screen of multi-cell type tumor spheroids was designed to identify active combinations of targeted small molecules and PI3K pathway inhibitors. […] Compounds. […] If the clinical Cmax for an agent had not been determined, the highest concentration tested was 10 microM. […]
Endpoint name: viability, T/C (%)

• C[C@@H](NC(=O)c1ncnc(N)c1Cl)c1ncc(C(=O)Nc2cc(C(F)(F)F)c(Cl)cn2)s1 + COc1c(OCCCN2CCOCC2)ccc2c3n(c(=NC(=O)c4cnc(N)nc4)nc12)CCN3 = 96.8
• Cn1ncnc1[C@H]1c2n[nH]c(=O)c3cc(F)cc(c23)N[C@@H]1c1ccc(F)cc1 + COc1c(OCCCN2CCOCC2)ccc2c3n(c(=NC(=O)c4cnc(N)nc4)nc12)CCN3 = 87.3
• CC1(C)CCC(Nc2ncc(C(F)(F)F)c(-c3c[nH]c4c(P(C)(C)=O)c(C#N)ccc34)n2)CN1 (stereo not given) + COc1c(OCCCN2CCOCC2)ccc2c3n(c(=NC(=O)c4cnc(N)nc4)nc12)CCN3 = 85.8
• CC1(C)CCC(CN2CCN(c3ccc(C(=O)NS(=O)(=O)c4ccc(NCC5CCOCC5)c([N+](=O)[O-])c4)c(Oc4cnc5[nH]ccc5c4)c3)CC2)=C(c2ccc(Cl)cc2)C1 + CC(Nc1ccc2c(c1)OCCn1cc(N3C(=O)OCC3C(F)F)nc1-2)C(N)=O = 89.3
• C#Cc1c(F)ccc2cc(O)cc(-c3ncc4c(N5CC6CCC(C5)N6)nc(OCC56CCCN5CC(F)C6)nc4c3F)c12 (stereo not given) + COc1c(OCCCN2CCOCC2)ccc2c3n(c(=NC(=O)c4cnc(N)nc4)nc12)CCN3 = 86.9
• C[C@@H](NC(=O)c1ncnc(N)c1Cl)c1ncc(C(=O)Nc2cc(C(F)(F)F)c(Cl)cn2)s1 + CC(Nc1ccc2c(c1)OCCn1cc(N3C(=O)OCC3C(F)F)nc1-2)C(N)=O = 131
• CCCS(=O)(=O)Nc1ccc(F)c(C(=O)c2c[nH]c3ncc(-c4ccc(Cl)cc4)cc23)c1F + COc1c(OCCCN2CCOCC2)ccc2c3n(c(=NC(=O)c4cnc(N)nc4)nc12)CCN3 = 93.7
• CNC(=O)c1ccc(N2C(=S)N(c3ccc(C#N)c(C(F)(F)F)c3)C(=O)C2(C)C)cc1F + COc1c(OCCCN2CCOCC2)ccc2c3n(c(=NC(=O)c4cnc(N)nc4)nc12)CCN3 = 88.9
• CC(C)n1nc(-c2ccc3oc(N)nc3c2)c2c(N)ncnc21 + CC(Nc1ccc2c(c1)OCCn1cc(N3C(=O)OCC3C(F)F)nc1-2)C(N)=O = 37.1
• C#Cc1c(F)ccc2cc(O)cc(-c3ncc4c(N5CC6CCC(C5)N6)nc(OCC56CCCN5CC(F)C6)nc4c3F)c12 (stereo not given) + CC(Nc1ccc2c(c1)OCCn1cc(N3C(=O)OCC3C(F)F)nc1-2)C(N)=O = 120
